biological target: human F508del-CFTR (Homo sapiens, UniProt P13569, DEL508-508); assay: F508del-CFTR cell surface expression (corrector activity), DiscoveRx ß-galactosidase complementation chemiluminescence assay in recombinant U2OS cell line; conditions: U2OS, in relation to the Emax of the corrector lumacaftor (=100%); U2OS cells, 16h compound incubation; arithmetic mean
Sequence (P13569 with tags, fused parts or gaps DEL508-508): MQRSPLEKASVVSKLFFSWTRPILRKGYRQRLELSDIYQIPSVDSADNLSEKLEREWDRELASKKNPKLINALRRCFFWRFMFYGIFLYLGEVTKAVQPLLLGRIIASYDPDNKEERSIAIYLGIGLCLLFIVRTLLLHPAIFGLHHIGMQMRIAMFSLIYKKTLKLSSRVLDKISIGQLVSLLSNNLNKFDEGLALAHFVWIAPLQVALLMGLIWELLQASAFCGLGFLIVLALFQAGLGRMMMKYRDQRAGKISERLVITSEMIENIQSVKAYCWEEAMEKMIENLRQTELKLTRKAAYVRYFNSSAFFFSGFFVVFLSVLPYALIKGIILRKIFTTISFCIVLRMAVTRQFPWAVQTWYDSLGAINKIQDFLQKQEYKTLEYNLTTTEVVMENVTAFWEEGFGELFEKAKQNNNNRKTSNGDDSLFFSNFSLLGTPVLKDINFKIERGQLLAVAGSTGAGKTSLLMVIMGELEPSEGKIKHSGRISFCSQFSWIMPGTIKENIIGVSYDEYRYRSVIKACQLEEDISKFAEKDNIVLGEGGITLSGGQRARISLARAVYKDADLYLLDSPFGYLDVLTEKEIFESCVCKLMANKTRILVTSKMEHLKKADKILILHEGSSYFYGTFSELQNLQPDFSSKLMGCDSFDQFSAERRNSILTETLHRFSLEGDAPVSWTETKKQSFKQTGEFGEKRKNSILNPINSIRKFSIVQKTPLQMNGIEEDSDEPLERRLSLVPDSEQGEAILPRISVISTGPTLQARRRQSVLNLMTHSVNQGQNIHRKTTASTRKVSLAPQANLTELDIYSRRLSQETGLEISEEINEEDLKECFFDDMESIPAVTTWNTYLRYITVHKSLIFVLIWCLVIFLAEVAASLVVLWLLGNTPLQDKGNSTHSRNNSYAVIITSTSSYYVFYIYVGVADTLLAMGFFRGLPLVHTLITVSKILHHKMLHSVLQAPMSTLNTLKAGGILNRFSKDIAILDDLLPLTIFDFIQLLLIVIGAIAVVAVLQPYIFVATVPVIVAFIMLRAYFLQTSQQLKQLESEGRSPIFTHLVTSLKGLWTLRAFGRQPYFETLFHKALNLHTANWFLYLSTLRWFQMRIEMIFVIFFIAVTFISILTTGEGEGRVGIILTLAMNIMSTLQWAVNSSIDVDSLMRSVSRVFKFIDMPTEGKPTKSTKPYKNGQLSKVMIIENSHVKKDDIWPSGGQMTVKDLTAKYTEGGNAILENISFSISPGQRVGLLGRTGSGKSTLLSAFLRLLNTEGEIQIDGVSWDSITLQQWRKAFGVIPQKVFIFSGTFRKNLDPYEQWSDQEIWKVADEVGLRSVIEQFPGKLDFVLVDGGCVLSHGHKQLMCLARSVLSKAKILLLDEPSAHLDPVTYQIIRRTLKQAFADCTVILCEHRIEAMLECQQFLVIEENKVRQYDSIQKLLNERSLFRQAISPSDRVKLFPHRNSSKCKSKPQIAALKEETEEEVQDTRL

>  <COMPOUND>
Cc1cc2c3c(ccc2cn1)OC[C@@H](Cc1ccccc1)NC(=O)[C@@H](Cc1nc(C(F)(F)F)no1)N(C)C(=O)[C@H](CC(C)C)N(C)C(=O)C[C@@H](C(=O)NCCc1noc(C2CC2)n1)NC3=O [Example 889]

>  <Emax>
403%

$$$$
>  <COMPOUND>
CC(C)C[C@H]1C(=O)N(C)[C@H](Cc2nc(C(F)(F)F)no2)C(=O)N[C@H](Cc2ccccc2)COc2cnc3ccc(F)cc3c2C(=O)N[C@H](C(=O)NCCc2noc(C3CC3)n2)CC(=O)N1C [Example 811]

>  <Emax>
333%

$$$$
>  <COMPOUND>
Cc1cc2c3c(ccc2cn1)OC[C@@H](Cc1ccccc1)NC(=O)[C@@H](CC(F)(F)F)N(C)C(=O)[C@H](CC(C)C)N(C)C(=O)C[C@@H](C(=O)NCCc1noc(C2CC2)n1)NC3=O [Example 950]

>  <Emax>
464%

$$$$

---

molecular target: human F508del-CFTR (Homo sapiens, UniProt P13569, DEL508-508); assay: F508del-CFTR cell surface expression (corrector activity), DiscoveRx ß-galactosidase complementation chemiluminescence assay in recombinant U2OS cell line; conditions: U2OS, in relation to the Emax of the corrector lumacaftor (=100%); U2OS cell line, 16h compound incubation; arithmetic mean values;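 also: U2OS cells co-expressing ProLink-tagged F508del-CFTR and a membrane-anchored enzyme acceptor, where more surface CFTR restores β-galactosidase activity measured by chemiluminescence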
Think of 200% as a floor: if Emax stands on it or above, it is Fulfilled; beneath it, Not fulfilled.

>  <COMPOUND>
CC(C)C[C@H]1C(=O)N(C)CC(=O)N[C@H](Cc2ccccc2)COc2cccc(Cl)c2C(=O)N[C@H](C(=O)NCCc2ccc3c(c2)OCO3)CC(=O)N1C [Example 279]

>  <SYSTEM TESTED>
human F508del-CFTR (Homo sapiens, UniProt P13569, DEL508-508)

>  <LABEL>
Not fulfilled

$$$$
>  <COMPOUND>
CC(C)C[C@H]1C(=O)N2CCOC[C@@H]2C(=O)N[C@H](Cc2ccccc2)COc2cnc3ccccc3c2C(=O)N[C@H](C(=O)NCCc2ccc(C(C)(C)C)cc2)CC(=O)N1C [Example 48]

>  <SYSTEM TESTED>
human F508del-CFTR (Homo sapiens, UniProt P13569, DEL508-508)

>  <LABEL>
Not fulfilled

$$$$
>  <COMPOUND>
COc1cc(CCNC(=O)[C@@H]2CC(=O)N(C)[C@@H](CC(C)C)C(=O)N3CCCC[C@@H]3C(=O)N[C@H](Cc3ccccc3)COc3cnc4ccccc4c3C(=O)N2)ccc1-n1nccn1 [Example 93]

>  <SYSTEM TESTED>
human F508del-CFTR (Homo sapiens, UniProt P13569, DEL508-508)

>  <LABEL>
Not fulfilled

$$$$
>  <COMPOUND>
COc1cccc(CCNC(=O)[C@@H]2CC(=O)N(C)[C@@H](CC(C)C)C(=O)N3CCCC[C@@H]3C(=O)N[C@H](Cc3ccccc3)COc3ccc4oc(C)nc4c3C(=O)N2)c1 [Example 351]

>  <SYSTEM TESTED>
human F508del-CFTR (Homo sapiens, UniProt P13569, DEL508-508)

>  <LABEL>
Not fulfilled

$$$$
>  <COMPOUND>
COc1cc2c(cc1CCNC(=O)[C@@H]1CC(=O)N(C)[C@@H](CC(C)C)C(=O)N3CCOC[C@@H]3C(=O)N[C@H](Cc3ccccc3)COc3ccc4ccccc4c3C(=O)N1)OCCO2 [Example 35]

>  <SYSTEM TESTED>
human F508del-CFTR (Homo sapiens, UniProt P13569, DEL508-508)

>  <LABEL>
Not fulfilled

$$$$
>  <COMPOUND>
CC(C)C[C@H]1C(=O)N2CCOC[C@@H]2C(=O)N[C@H](Cc2ccccc2)COc2cnc3ccccc3c2C(=O)N[C@H](C(=O)NCCc2ccccc2F)CC(=O)N1C [Example 50]

>  <SYSTEM TESTED>
human F508del-CFTR (Homo sapiens, UniProt P13569, DEL508-508)

>  <LABEL>
Fulfilled

$$$$
>  <COMPOUND>
Cc1cn(C)nc1CCNC(=O)[C@@H]1CC(=O)N(C)[C@@H](CC(C)C)C(=O)N2CCCC[C@@H]2C(=O)N[C@H](Cc2ccccc2)COc2cnc3ccccc3c2C(=O)N1 [Example 129]

>  <SYSTEM TESTED>
human F508del-CFTR (Homo sapiens, UniProt P13569, DEL508-508)

>  <LABEL>
Fulfilled

$$$$
>  <COMPOUND>
CC(C)C[C@H]1C(=O)N(C)C2(CC2)C(=O)N[C@H](Cc2ccccc2)COc2cnc3ccc(F)cc3c2C(=O)N[C@H](C(=O)NCCc2ccc(-c3cnccn3)cc2)CC(=O)N1C [Example 133]

>  <SYSTEM TESTED>
human F508del-CFTR (Homo sapiens, UniProt P13569, DEL508-508)

>  <LABEL>
Fulfilled

$$$$
>  <COMPOUND>
COc1cccc(CCNC(=O)[C@@H]2CC(=O)N(C)[C@@H](CC3CCC3)C(=O)N(CCC3CCCCC3)CC(=O)N[C@H](Cc3ccccc3)COc3ccc4ccccc4c3C(=O)N2)c1 (racemic) [Example 302]

>  <SYSTEM TESTED>
human F508del-CFTR (Homo sapiens, UniProt P13569, DEL508-508)

>  <LABEL>
Not fulfilled

$$$$
>  <COMPOUND>
COc1cccc(CCNC(=O)[C@@H]2CC(=O)N(C)[C@@H](CC(C)C)C(=O)N(CCC3CCCCC3)CC(=O)N[C@H](Cc3ccccc3)COc3ccc(Cl)cc3C(=O)N2)c1 [Example 254]

>  <SYSTEM TESTED>
human F508del-CFTR (Homo sapiens, UniProt P13569, DEL508-508)

>  <LABEL>
Not fulfilled

$$$$
>  <COMPOUND>
CC(C)C[C@H]1C(=O)N(C)C2(CC2)C(=O)N[C@H](Cc2ccccc2)COc2cnc3ccc(F)cc3c2C(=O)N[C@H](C(=O)NCCc2ccc(N3CCOCC3)cc2)CC(=O)N1C [Example 170]

>  <SYSTEM TESTED>
human F508del-CFTR (Homo sapiens, UniProt P13569, DEL508-508)

>  <LABEL>
Fulfilled

$$$$
>  <COMPOUND>
CC(C)C[C@H]1C(=O)N2CCCC[C@@H]2C(=O)N[C@H](Cc2ccccc2)COc2ccc3ncn(C)c3c2C(=O)N[C@H](C(=O)NCCc2cccc(-n3nccn3)c2)CC(=O)N1C (racemic) [Example 28]

>  <SYSTEM TESTED>
human F508del-CFTR (Homo sapiens, UniProt P13569, DEL508-508)

>  <LABEL>
Not fulfilled

$$$$
>  <COMPOUND>
COc1cccc(CCNC(=O)[C@@H]2CC(=O)N(C)[C@@H](CC3CCCCC3)C(=O)N(C[C@@H]3CCCCO3)CC(=O)N[C@H](Cc3ccccc3)COc3cccc(OC)c3C(=O)N2)c1 [Example 314]

>  <SYSTEM TESTED>
human F508del-CFTR (Homo sapiens, UniProt P13569, DEL508-508)

>  <LABEL>
Not fulfilled

$$$$
>  <COMPOUND>
[2H]C([2H])([2H])Oc1cccc(CCNC(=O)[C@@H]2CC(=O)N(C)[C@@H](CC(C)C)C(=O)N(CCC3CCCCC3)CC(=O)N[C@H](Cc3ccccc3)COc3cccc(OC)c3C(=O)N2)c1 [Example 200]

>  <SYSTEM TESTED>
human F508del-CFTR (Homo sapiens, UniProt P13569, DEL508-508)

>  <LABEL>
Fulfilled

$$$$
>  <COMPOUND>
CN1C(=O)C[C@@H](C(=O)NCCc2ccc3c(c2)OCO3)NC(=O)c2c(ccc3ccccc23)OC[C@@H](Cc2ccccc2)NC(=O)CN(C[C@H]2CCCCO2)C(=O)[C@@H]1CC1CC1 [Example 340]

>  <SYSTEM TESTED>
human F508del-CFTR (Homo sapiens, UniProt P13569, DEL508-508)

>  <LABEL>
Not fulfilled

$$$$
>  <COMPOUND>
Cc1cccc2c1C(=O)N[C@H](C(=O)NCCc1ccc3c(c1)OCO3)CC(=O)N(C)[C@@H](CC(C)C)C(=O)N(CCC1CCCCC1)CC(=O)N[C@H](Cc1ccccc1)CO2 [Example 246]

>  <SYSTEM TESTED>
human F508del-CFTR (Homo sapiens, UniProt P13569, DEL508-508)

>  <LABEL>
Not fulfilled

$$$$
>  <COMPOUND>
COc1nccc2c1C(=O)N[C@H](C(=O)NCCc1cnn(C3CC3)n1)CC(=O)N(C)[C@@H](CC(C)C)C(=O)N1CCCC[C@@H]1C(=O)N[C@H](Cc1ccccc1)CO2 [Example 187]

>  <SYSTEM TESTED>
human F508del-CFTR (Homo sapiens, UniProt P13569, DEL508-508)

>  <LABEL>
Fulfilled

$$$$
>  <COMPOUND>
COc1cccc2c1C(=O)N[C@H](C(=O)NCCc1ccccc1F)CC(=O)N(C)[C@@H](CC(C)C)C(=O)N(CCC1CCCCC1)CC(=O)N[C@H](Cc1ccccc1)CO2 [Example 204]

>  <SYSTEM TESTED>
human F508del-CFTR (Homo sapiens, UniProt P13569, DEL508-508)

>  <LABEL>
Not fulfilled

$$$$
>  <COMPOUND>
Cc1cc(CCNC(=O)[C@@H]2CC(=O)N(C)[C@@H](CC(C)C)C(=O)N(C)C3(CC3)C(=O)N[C@H](Cc3ccccc3)COc3cnc4ccc(F)cc4c3C(=O)N2)no1 [Example 141]

>  <SYSTEM TESTED>
human F508del-CFTR (Homo sapiens, UniProt P13569, DEL508-508)

>  <LABEL>
Fulfilled

$$$$
